Each entry below lists one item and its recorded composite z-score value.
experiment: binders of probe aFST on microarray, primary screen, stem cell growth factor project, biochemical, small-molecule microarray, fluorescence 635/667 (AID 1086); conditions: higher = more signal;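 note: score merges 667 nm fluorescence with signal-to-noise of each printed compound spot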
Give only the figure.

Some compounds with recorded composite z-score:
[[record]]
compound = "CC(C)[C@@H](OCc1ccccc1)[C@H](C)C=NO[C@H](C)c1cn([C@@H]2COC[C@H]2O)nn1"
measuredparameter = "composite z-score"
endpointvalue = -0.0844

[[record]]
compound = "O=C1C2=CC[C@H]3C(=O)N(Cc4ccccc4)C(=O)[C@H]3[C@H]2[C@H](O)[C@@H]2O[C@H]12"
measuredparameter = "composite z-score"
endpointvalue = -0.351

[[record]]
compound = "O=C(NN=C1C[C@@H](O)[C@@H](O)[C@@H]2[C@@H]3C(=O)N(c4ccc(F)cc4F)C(=O)[C@@H]3CC[C@H]12)OCc1ccccc1"
measuredparameter = "composite z-score"
endpointvalue = 0.991

[[record]]
compound = "COCCNC(=O)OCC1CCCC2(CC(OC(=O)NCc3cccc4ccccc34)CC(CCC(=O)N[C@@H](C)C(=O)OC)O2)O1 (stereo partly drawn)"
measuredparameter = "composite z-score"
endpointvalue = 0.311

[[record]]
compound = "COC(=O)CC=C1c2ccccc2[C@H](OC)[C@H]1C"
measuredparameter = "composite z-score"
endpointvalue = 0.137


QUERY: Given COc1ccc(OC[C@@H]2CC3[C@@H](c4ccc(Br)cc4)[C@H](C)CC[C@H]3C(=O)O2)cc1 (stereo partly drawn) , state its recorded composite z-score.
RESULT: 0.204

QUERY: Given CCN1C(=O)[C@H]2[C@H]3[C@H](O)[C@H](O)CC(=NOC[C@@H](O)COCc4ccco4)[C@H]3CC[C@H]2C1=O , state its recorded composite z-score.
RESULT: -0.104

QUERY: Given COC(=O)[C@H](C)NC(=O)CCC1CC(OC(=O)NCc2cccc3ccccc23)CC2(CCCC(COC(=O)NCCOc3ccccc3)O2)O1 (stereo partly drawn) , state its recorded composite z-score.
RESULT: 0.173
